# PROTOCOL_NOTES: Plasma concentration in rats after subcutaneous administration (HPLC)
# EXPERIMENTAL_SETUP: rat, plasma, sc, 5 mg/kg
Form field: concentration at 6 h (one value per entry).
Your answer is read as µg/mL, so omit the unit and give the number.

| MOLECULE | READOUT_TYPE | RECORDED_MEASUREMENT |
| --- | --- | --- |
| NCc1cccc(CC(NS(=O)(=O)c2ccc3ccccc3c2)C(=O)N2CCC(C(=O)O)CC2)c1 (racemic) [Compound 186] | concentration at 6 h | 0.34 |

Okay, now this molecule:
Query string: Please look up its concentration at 6 h: N=C(NO)c1cccc(CC(NS(=O)(=O)c2ccc3ccccc3c2)C(=O)N2Cc3ccccc3CC2C(=O)O)c1 (racemic) [Compound 190, hydroiodide]
Result string: 0.126
